Value source: PubChem BioAssay (NCI)

Tested on: 786-0 renal
protocol.description: NCI-60 one-dose screen, 48 h (100 = growth as untreated, 0 = no growth, -100 = all killed)
condition.details: 10 µM unless noted
This is part of a sample that, as a whole, favours compounds with a hit. Of some 83,000 tested, about 20% had one in any assay.
# label = class 1 if growth < 90% else class 0

Example entries and their recorded answers appear below.
• Nc1nc(SN=Nc2ccc(S(N)(=O)=O)cc2)c2[nH]cnc2n1 = class 1
• COc1cc(-c2cc(=O)oc3cc(O)ccc23)c(OC)c2c1OCO2 = class 0
• COc1cc2ncnc(Nc3ccc(C(=O)/C=C/c4ccc(C(F)(F)F)cc4F)cc3)c2cc1OC = class 1
• O=C(Nc1ccccc1)Oc1ccccc1-c1ccccc1 = class 0
• O=C(OC(OC(=O)c1cc(Cl)cc(Cl)c1)c1cccc2ccccc12)c1ccccc1 (stereo not given) = class 0
• Fc1ccc(C2CC(c3cccc(Nc4ccncc4)c3)=NN2c2ccccc2)cc1 (stereo not given) = class 1

Query: Take the molecule O=C(Nc1cccc(Cl)c1)c1cc(Cl)ccc1O and say whether its growth is less than 90%.
Reply: class 1

Query: Consider CC(C)CCSc1nc(NNC(N)=O)c(C#N)c(-c2ccccc2)n1 . Does its growth lie strictly below 90%?
Reply: class 1

Query: Does the reported growth of the following molecule sit strictly below 90%? Nc1ncc(C#Cc2cncc(NC(=O)c3cccc(C(F)(F)F)c3)c2)c2cccnc12
Reply: class 1

Query: Please indicate whether the reported growth of C=C(C)[C@@H]1CC[C@]2(C=O)CC[C@]3(C)[C@H](CC[C@@H]4[C@@]5(C)CCCNC(C)(C)[C@@H]5CC[C@]43C)[C@@H]12 is strictly below 90%.
Reply: class 1

====

Test system: OVCAR-8 ovarian
protocol.description: NCI-60 one-dose screen, 48 h
condition.details: 10 µM unless noted
The panel holds about 83,000 compounds, 20% with a hit somewhere; the sample as a whole holds those more often. Activity calls are given as the source filed them. How the source made its calls: active means growth percent below 10; inactive means the rest.
Select the matching outcome among 1 (yes) for active, 0 (no) for inactive

Consider the following illustrative entries.
- O=C1NC(=S)NC(=O)C1=Cc1cn(Cc2ccccn2)c2ccccc12: 0 (no)
- O=C1CCC(NC(=S)Nc2ccccc2)N1 (stereo unspecified): 0 (no)
- Fc1ccc(-n2cc(COc3ncnc4sc5c(c34)CCCC5)nn2)cc1Cl: 0 (no)

Query: Hi, sorry to bother you, what did the test record for COc1cccc(C(Cc2ccccc2)Nc2ccccc2)c1OC (stereo unspecified) ?
Reply: 0 (no)

Query: Each molecule tested received a call. Report the one for COc1ccc(C(=O)c2cc3c(N)c(C(=O)Nc4cccc(Cl)c4)sc3nc2C)cc1 .
Reply: 0 (no)

Query: Just curious, what result did COc1ccc(-c2nc(SCCC(C)C)nc(N/N=C(/C)c3ccc(C)cc3)c2C#N)cc1 get here?
Reply: 0 (no)

====

# reported growth; entries follow
Tested on: NCI-H460 lung
protocol.description: NCI-60 one-dose screen, 48 h (100 = growth as untreated, 0 = no growth, -100 = all killed)
condition.details: 10 µM unless noted
The panel holds about 83,000 compounds, 20% with a hit somewhere; the sample as a whole holds those more often.
Answer with a number only, understood to be in %.

- Cc1c(C2=CCCCC2)c2ccccn2c1C(=O)c1cccc(S(=O)(=O)N2CCOCC2)c1: 92.7
- NC(=S)N/N=C(\c1ccc(Cl)cc1)C1CC1: 102

Record Nc1c(C(=O)Nc2ccc(Cl)cc2)cc(-c2nc3ccccc3s2)c(=O)n1NS(=O)(=O)c1ccc(Cl)cc1 . Reported growth: 106

growth reading for COc1cc(NCC(O)CN(CC(C)C)CC(C)C)c2nc(C)ccc2c1 (configuration not stated) : 96.5

The measured growth associated with c1ccc(-c2nn(-c3ccccc3)[n+](-c3cccc4ccccc34)n2)cc1 reads 1.82

# growth (compound: CC[C@@]12C=CCN3CC[C@]4(c5cc(NC(=O)COc6cc(OCC(=O)Nc7cc8c(cc7OC)N(C)[C@H]7[C@@](O)(C(=O)OC)[C@H](OC(C)=O)[C@]9(CC)C=CCN%10CC[C@]87[C@@H]%109)cc7oc(-c8ccccc8)cc(=O)c67)c(OC)cc5N(C)[C@@H]4[C@](O)(C(=O)OC)[C@H]1OC(C)=O)[C@H]32 ) is 0.985

Lab note: Cc1ccc(C(c2c(O)c3cc(Br)ccc3[nH]c2=O)c2c(O)c3cc(Br)ccc3[nH]c2=O)cc1 gave growth of 89.5

====

We begin with a simple list: items and their reported growth.
Tested on: NCI-H322M lung
protocol.description: NCI-60 one-dose screen, 48 h (100 = growth as untreated, 0 = no growth, -100 = all killed)
condition.details: 10 µM unless noted
This is part of a sample that, as a whole, favours compounds with a hit. Of some 83,000 tested, about 20% had one in any assay.
Report the value in % with no unit label.

• Cc1[nH]n(C(=O)c2ccncc2)c(=O)c1N=Nc1ccc(F)c(Cl)c1 = 110
• CCc1c(Nc2ccc(C)cc2)nc(N)[nH]c1=O = 103
• COc1ccc(Nn2c(SCC(=O)Nc3nc(-c4ccc(Cl)cc4)cs3)nc(C)c2C)cc1 = 112
• c1cnc2nc3c(cc2c1)oc1ccccc13 = 99.9
• COc1cc(C2CC(c3cccc(Nc4ccncc4)c3)=NN2c2ccccc2)cc(OC)c1OC (stereo not given) = 80.1
• CCN(CC)CCCCCCNc1cc(OC)cc2cccnc12 = 96
• Cc1ccccc1C(c1ccccc1)c1ccccc1C = 90.9
• O=S(=O)(NCCNc1nccc(-c2c(-c3cccc(F)c3)nc3occn23)n1)c1cccc2ccccc12 = 74.8
• N/C(=N\N=C\c1cc2ccccc2[nH]1)N/N=C/c1cc2ccccc2[nH]1 = 100

Value sought: growth, system NCI-H322M lung, item O=C(NNc1nc(Cl)nc(N2CCN(C(c3ccccc3)c3ccccc3)CC2)n1)c1ccccc1 . Result: 32

====

Tested on: KM12 colon
protocol.description: NCI-60 one-dose screen, 48 h
condition.details: 10 µM unless noted
Compounds without any hit were thinned out: in the full panel of roughly 83,000, 20% have a hit. Active and inactive are the calls of the source. Rule for the calls: active = growth percent below 10; inactive = the rest.
Just give me one of these, please: active, inactive

* C=C(C)[C@H]1CC/C(C)=C/CC[C@]2(C)O[C@H]2CC/C(COC(=O)[C@@H](OC(C)=O)[C@H](NC(=O)c2ccccc2)c2ccccc2)=C\[C@@H]1O | inactive
* CCCCCCN(C)Cc1ccc(OCCOc2ccc(CN(C)CCCCCC)cc2)cc1 | active
* Cc1c([N+](=O)[O-])cc(C(C)(C)C)cc1[N+](=O)[O-] | inactive
* COc1ccc(C(O)c2cc3c(N)c(C(=O)Nc4ccc(Cl)cc4)sc3nc2C)cc1 (stereo unspecified) | active
* COc1ccc2c(c1)OC13Oc4cc(OC)ccc4C=C1CCCC3=C2 | active

Query: Status in this test for Cc1ccc2[nH]c(=O)cc(-n3nncc3COc3ccc(C=O)cc3)c2c1 ?
Reply: inactive

Query: Returns: the outcome recorded for Cc1cc(C)c(C=O)c(C)c1 in this assay.
Reply: inactive

Query: In this assay, the call recorded for O=C(Nc1cccc(Cl)c1)c1cc(Cl)ccc1O was what?
Reply: active

Query: Dear all, I need the recorded test outcome for O=S(=O)(NCCNc1nccc(-c2c(-c3ccc(F)c(O)c3)nc3occn23)n1)c1ccccc1 , thank you.
Reply: inactive

Query: What outcome does the record of this test show for COc1ccc(-c2nc(N/N=C/c3c[nH]c4ccccc34)nc(N3CCOCC3)c2C#N)cc1 ?
Reply: inactive

Query: Just curious, what result did CN1CCN(CCCOc2ccc3ncnc(Nc4ccc(Oc5cccc(C(F)(F)F)c5)c(Cl)c4)c3c2)CC1 get here?
Reply: active

Query: For this compound, state the assay outcome: CCN(CC)CCSCCCNc1c(C)cnc2cc(Cl)ccc12
Reply: inactive

Query: Look up the recorded call for COc1cc(NCC(O)CN(CC(C)C)CC(C)C)c2nc(C)ccc2c1 (stereo unspecified) in this test.
Reply: inactive

====

System: OVCAR-4 ovarian
protocol.description: NCI-60 one-dose screen, 48 h
condition.details: 10 µM unless noted
The panel holds about 83,000 compounds, 20% with a hit somewhere; the sample as a whole holds those more often. The source made the active and inactive calls. How the source made its calls: active means growth percent below 10; inactive means the rest.
The reply should name one outcome from yes = active, no = inactive

# count of solved cases: 5
• C/C(=C(/c1ccccc1)c1ccc(OCC(O)CN2CCOCC2)cc1)c1ccccc1 (centres undefined) = no
• COc1ccccc1/C=N/NC1=NC2C(N1)N(C)C(=O)N2C (centres undefined) = no
• COc1ccccc1C(C[N+](=O)[O-])c1c(-c2ccccc2)[nH]c2cc(C)ccc12 (centres undefined) = no
• COc1cc(NCC(C)(O)CN(CC(C)C)CC(C)C)c2nc(C)ccc2c1 (centres undefined) = no
• COc1cc(OC)c(/C=C/C(=O)c2ccc(Nc3ncnc4ccccc34)cc2)c(OC)c1 = yes

Query: Could you please tell me the result logged for C[C@@H]1CN(Cc2ccc(/C=C/c3n[nH]c4ccc5nc(-c6cn[nH]c6C(F)(F)F)c6c(c5c34)CCCC6)cc2)C[C@H](C)O1 in this assay?
Reply: no

Query: What is the recorded call for this compound in the test? CC1(C)[C@H](O)CC[C@]2(C)[C@@H]1CC[C@@]13C[C@@H](CC[C@H]12)[C@@](O)(CO)C3
Reply: no

Query: Please share the test call associated with CCc1nc(C)cn1C(=O)OCc1nc2nc(Cl)nc(N3CCOCC3)c2[nH]1 .
Reply: yes

Query: Tell me the assay call for COc1ccc(CNCCN2C(=O)c3ccc4c5c(ccc(c35)C2=O)C(=O)N(CCNCc2ccc(OC)cc2)C4=O)cc1 please.
Reply: yes
